Tested on: SW-620 colon
method.notes: NCI-60 one-dose screen, 48 h
assay.setup: 10 µM unless noted
About 83,000 compounds went through this panel and 20% of them were active in at least one assay; those are over-represented in the sample as a whole. The source made the active and inactive calls. The calls were made as follows: active = growth percent below 10; inactive = the rest.
Output constraint: value belongs to t (active), f (inactive)

Please review the entries below; each comes with its answer.
Cc1csc(NC(c2ccc(Br)cc2)c2c(C)nc3ccccn23)n1 (stereo not drawn)
f
C=C(C)[C@@H]1CC[C@]2(C(=O)N3CCNCC3)CC[C@]3(C)[C@H](CC[C@@H]4[C@@]5(C)C/C(=C/c6ccncc6)C(=O)C(C)(C)[C@@H]5CC[C@]43C)[C@@H]12
f
CC(C)CSc1nc(NN)c(C#N)c(-c2ccccc2)n1
f

q: What classification did CCOC(=O)c1cn2c3c(cccc3c1=O)C(=O)/C(=C/c1cccc(Cl)c1Cl)C2 end up with in this test?
a: f

q: Lookup Cc1ccc(S(=O)(=O)NCCNc2nccc(-c3c(-c4cccc(N)c4)nc4sccn34)n2)cc1
a: f

---

Test system: IGROV1 ovarian
method.notes: NCI-60 one-dose screen, 48 h
assay.setup: 10 µM unless noted
Compounds without any hit were thinned out: in the full panel of roughly 83,000, 20% have a hit. The source made the active and inactive calls. How the source made its calls: active means growth percent below 10; inactive means the rest.
Output constraint: value belongs to active, inactive

Please review the entries below; each comes with its answer.
COc1cc(-c2ncn(/C=C\C(=O)OC(C)C)n2)cc(C(F)(F)F)c1
inactive
O=C(CSc1nc2ccccc2[nH]1)Nc1ccc(-c2nc3ccccc3s2)c(Cl)c1
active

Here's the next entry for you.
q: What classification did NC(=N\N=C/c1ccc(O)cc1)/C(N)=N\N=C/c1ccc(O)cc1 end up with in this test?
a: inactive

---

Tested on: LOX IMVI melanoma
method.notes: NCI-60 one-dose screen, 48 h (100 = growth as untreated, 0 = no growth, -100 = all killed)
assay.setup: 10 µM unless noted
Compounds without any hit were thinned out: in the full panel of roughly 83,000, 20% have a hit.
Attribute: growth
Numbers only here, please. The scale is %.

O=C(c1ccccc1)c1c(/C=C/c2ccccc2)c2ccccc2[nH]c1=O
105

q: I'd like to know its growth. The molecule in question is Cc1ccc2ccccc2c1C[n+]1ccccc1
a: 94.5

q: Lookup O=C(Nc1cccc(-n2cc(-c3ccncc3)c(-c3ccc(Cl)c(O)c3)n2)c1)Nc1cccc(C(F)(F)F)c1
a: 23.8

---

Test system: SF-539 CNS
method.notes: NCI-60 one-dose screen, 48 h
assay.setup: 10 µM unless noted
Experimental: Cells are grown in 96 well plates and exposed to the test compound for 48 hours. Compounds are tested at a single concentration, which is 10^-5 M for most compounds. The reported endpoint is percent growth (GI% or GIPRCNT), where numbers from 0 - 100% represent growth inhibition, and numbers from -100% - 0 represent cell death. For example, a value of 40 represents 60% growth inhibition. A value of 0 means no net growth occurred over the course of the experiment. […]
The panel holds about 83,000 compounds, 20% with a hit somewhere; the sample as a whole holds those more often. The source made the active and inactive calls. How the source made its calls: active means growth percent below 10; inactive means the rest.
Output constraint: value belongs to 1 (active), 0 (inactive)

Please review the entries below; each comes with its answer.
CC(C)(C)n1cc(-c2ccnc(NCCCNS(=O)(=O)c3ccc(Cl)cc3)c2)c(-c2cccc(O)c2)n1
1
C=C1C(=O)O[C@H]2[C@H]1CC/C(COC(=O)NCc1ccccc1OC)=C\CC[C@@]1(C)O[C@@H]21
0

Here's the next entry for you.
q: What classification did Cc1c(C(=O)/C=C/c2csc3ccccc23)[n+](=O)c2ccccc2n1[O-] end up with in this test?
a: 0

---

Tested on: SR leukemia
method.notes: NCI-60 one-dose screen, 48 h
assay.setup: 10 µM unless noted
Compounds without any hit were thinned out: in the full panel of roughly 83,000, 20% have a hit. Activity calls are given as the source filed them. How the source made its calls: active means growth percent below 10; inactive means the rest.
Output constraint: value belongs to yes (1) = active, no (0) = inactive

Please review the entries below; each comes with its answer.
c1ccc(-c2nc(N3CCNCC3)c3nc(-c4ccccc4)oc3n2)cc1
yes (1)
CC(=O)Nc1ccc(/C=C/C(=O)c2ccccc2)cc1
yes (1)
O=[N+]([O-])c1ccc(Sc2ncccn2)c([N+](=O)[O-])c1
yes (1)
O=c1[nH]c(-c2ccccc2)nc(CN2CCCCC2)c1O
no (0)

q: What classification did COc1ccc(CNCCCN2C(=O)c3ccc4c5c(ccc(c35)C2=O)C(=O)N(CCCNCCCCNCCCN)C4=O)c(OC)c1OC end up with in this test?
a: yes (1)

---

Attribute: growth
Tested on: SF-268 CNS
method.notes: NCI-60 one-dose screen, 48 h (100 = growth as untreated, 0 = no growth, -100 = all killed)
assay.setup: 10 µM unless noted
This is part of a sample that, as a whole, favours compounds with a hit. Of some 83,000 tested, about 20% had one in any assay.
Numbers only here, please. The scale is %.

Sample answers from the record:
CC(C)C1=CC2=C(C=O)C[C@@H]3[C@](C)(CCC[C@@]3(C)C(=O)OCC#CCN3CCCC3)[C@H]2CC1
86.9
COc1cc(-c2nc(-c3nc4ccc(Cl)cc4[nH]3)cc3c2[nH]c2ccccc23)cc(OC)c1OC
68

q: # returns recorded growth (system: SF-268 CNS) for O=C(NCCNc1nccc(-n2ccc3cccnc32)n1)c1ccc(C(F)(F)F)cc1
a: 97.8

q: Lookup Fc1ccc(CNCCNc2ncnc3c2cnn3-c2ccccc2)cc1
a: 92.3

q: Lookup CC(=O)Nc1ccc(S(=O)(=O)n2ccc(-c3ccc4c(c3)CCC(C)(C)O4)n2)cc1
a: 77.3

q: Lookup COc1c2occc2c(OC)c2c(=O)c(-c3cc(-c4ccc(F)cc4)c(C#N)c(N)n3)c(C)oc12
a: 35.5

q: Lookup C=C1CCC2C(C)(CO)C(O)CCC2(C)C1CC(NCc1ccccc1)C1=CCOC1=O (stereo unspecified)
a: 86.5

---

System: UACC-257 melanoma
method.notes: NCI-60 one-dose screen, 48 h (100 = growth as untreated, 0 = no growth, -100 = all killed)
assay.setup: 10 µM unless noted
Compounds without any hit were thinned out: in the full panel of roughly 83,000, 20% have a hit.
Classification field: satisfied = growth at or over 90%; not satisfied = growth under 90%.

Please review the entries below; each comes with its answer.
C=C(C)[C@@H]1C[C@@H]2Cc3cc(Cl)ccc3N1O2
satisfied
O=C1/C(=C/c2ccc(Cl)cc2)CN(C(=O)CCN2CCC(=NO)CC2)C/C1=C\c1ccc(Cl)cc1
not satisfied
Cc1cc(C2=NNC(=O)Cc3cc4c(cc32)OCCO4)cc(C)c1N
not satisfied
O=C(N/N=C/C=C\c1ccccc1)C(=O)N/N=C/C=C/c1ccccc1
satisfied
COc1ccc(-n2c(=S)sc3c(Cl)nc(C)nc32)c(OC)c1
not satisfied

q: Given the entry CNC(=S)NNC(=O)C1CC1 , answer whether its growth meets or surpasses 90%.
a: satisfied

q: Lookup Nc1ccc(C(=O)CSc2nc3ccccc3[nH]2)cc1
a: satisfied

q: Lookup COc1ccc(-c2nc(/C=N/Nc3cc(C)nc4ccc(Br)cc34)c(C)o2)cc1
a: satisfied

q: Lookup Cc1ccc(S(=O)(=O)NCCNc2nccc(-c3c(-c4ccc(O)cc4)nc4sccn34)n2)cc1
a: satisfied

q: Lookup COc1ccc(Nc2[nH]n3c(=O)cc(-c4ccccc4)nc3c2C(=O)Nc2ccc(C)cc2)c(OC)c1
a: not satisfied

q: Lookup Nc1cccc(Cl)c1N
a: satisfied

q: Lookup Fc1ccc(Nc2nc(NCCNc3ccnc4cc(Cl)ccc34)nc(N3CCOCC3)n2)cc1
a: not satisfied

q: Lookup COc1ccc(OC)c(/C=C2\Oc3cc(OCCCN4CCCC4)ccc3C2=O)c1
a: not satisfied

q: Lookup COc1cc(NC(N)=NCCC(C)(C)c2ccc(C(F)(F)F)cc2)ncc1C#N
a: not satisfied

q: Lookup Cc1ccc(C(=O)C2=Cc3cc4ccccc4n3Cc3cnnn32)cc1
a: satisfied

q: Lookup CCOC(=O)c1ccc2c(c1)nc(-c1ccc(OCc3ccccc3)c(OC)c1)n2-c1cc(C(C)(C)C)[nH]n1
a: satisfied

q: Lookup COc1ccc(/C=C(\C#N)c2cc(OC)c3c(c2)OCO3)cc1
a: not satisfied

q: Lookup COC(=O)C1CCCN1C(=O)[C@@H]1CCCN1C(=O)[C@H](Cc1c[nH]c2ccccc12)NC(=S)Nc1cc(C(F)(F)F)cc(C(F)(F)F)c1 (stereo not given in full)
a: not satisfied

---

Attribute: growth
System: TK-10 renal
method.notes: NCI-60 one-dose screen, 48 h (100 = growth as untreated, 0 = no growth, -100 = all killed)
assay.setup: 10 µM unless noted
About 83,000 compounds went through this panel and 20% of them were active in at least one assay; those are over-represented in the sample as a whole.
Numbers only here, please. The scale is %.

Fc1ccccc1-c1nc(-c2nc3cc(Cl)c(Cl)cc3[nH]2)c2ccccn12
76.5

q: I'd like to know its growth. The molecule in question is Cc1ccc(N2CCN(C(C)C(N)=O)CC2)cc1 (stereo not given)
a: 114

q: Lookup COc1cccc(/C=C2\Oc3cc(OCCCN4CCCC4)ccc3C2=O)c1
a: 93.3

q: Lookup Cc1ccc(Cc2c(C=O)nc(N)[nH]c2=O)c2ccccc12
a: 112

q: Lookup O=c1ccn(-c2ncnc3nc[nH]c23)cc1
a: 86.4

q: Lookup Fc1ccc(CNCCNc2ncnc3c2cnn3-c2ccccc2)cc1
a: 102

q: Lookup O=C1c2c(c3c4ccccc4n(CCCCCCBr)c3c3[nH]c4ccccc4c23)C(=O)N1O
a: 18.1

q: Lookup COC(=O)[C@]12CC[C@@H](C)[C@H](C)[C@@H]1C1=CC[C@@H]3[C@@]4(C)C(C=O)=C[C@@](C)(COC(=O)c5ccco5)[C@@H]4[C@H](O)C[C@@]3(C)[C@]1(C)CC2
a: 11.5

q: Lookup CC(=O)Nc1scc[n+]1Cc1ccccc1
a: 113
